Target: T1, rat IL-11 (rat, UniProt Q99MF5 22-199)
T1 construct: Invigate, e.g. lot #C301019-19; also called rIL11
T1 sequence: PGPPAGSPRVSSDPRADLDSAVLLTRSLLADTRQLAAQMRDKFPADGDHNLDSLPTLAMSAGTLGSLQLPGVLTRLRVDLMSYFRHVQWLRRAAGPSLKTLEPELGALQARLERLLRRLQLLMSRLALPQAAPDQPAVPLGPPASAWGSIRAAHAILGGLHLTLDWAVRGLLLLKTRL
Assay: SPR, antibody captured, IL-11 as analyte
measured attribute: pKd
Value format note: pKd is -log10 of concentration (mol/L); just state the number.

Examples with answers:
binder	endpoint value
TPP-29404 (antibody, human IgG1, V domains shown) VH: EVQLLESGGGLVQPGGSLRLSCAASGFTFSSYGGHWVRQAPGKGLEWVALISYDGSYKYYADSVKGRFTISRDNSKNTLYLQMNSLRAEDTAVYYCAAGVPDYWGQGTLVTVSS VL: QSVLTQPPSASGTPGQRVTISCSGSSSNIGSYYDVHWYQQLPGTAPKLLIYSNNERPSGVPDRFSGSKSGTSASLAISGLRSEDEADYYCAAWDSSLSGPVFGGGTKLTVL	10.17
TPP-29402 (antibody, human IgG1, V domains shown) VH: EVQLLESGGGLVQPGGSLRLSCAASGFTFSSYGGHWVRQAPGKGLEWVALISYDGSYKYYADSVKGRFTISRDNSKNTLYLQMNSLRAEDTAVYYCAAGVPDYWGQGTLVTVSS VL: QSVLTQPPSASGTPGQRVTISCSGSSSNIGSGLDVHWYQQLPGTAPKLLIYSNEERPSGVPDRFSGSKSGTSASLAISGLRSEDEADYYCAAWDSSLYGPVFGGGTKLTVL	10.74

Please turn your attention to the following entry.
Look up pKd for this binder: TPP-29397 (antibody, human IgG1, V domains shown) VH: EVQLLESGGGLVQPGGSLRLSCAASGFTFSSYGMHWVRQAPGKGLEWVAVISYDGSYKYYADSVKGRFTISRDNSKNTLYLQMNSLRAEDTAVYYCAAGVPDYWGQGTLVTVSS VL: QSVLTQPPSASGTPGQRVTISCSGSSSNIWSGYDVHWYQQLPGTAPKLLIYSNEERPSGVPDRFSGSKSGTSASLAISGLRSEDEADYYCAAWDSSLYGPVFGGGTKLTVL
10.24
